# experimental system: acetylcholine muscarinic M1 receptor (CHOnfat/hM1 cells) (Homo sapiens, UniProt P11229)
# Sequence (P11229 whole entry): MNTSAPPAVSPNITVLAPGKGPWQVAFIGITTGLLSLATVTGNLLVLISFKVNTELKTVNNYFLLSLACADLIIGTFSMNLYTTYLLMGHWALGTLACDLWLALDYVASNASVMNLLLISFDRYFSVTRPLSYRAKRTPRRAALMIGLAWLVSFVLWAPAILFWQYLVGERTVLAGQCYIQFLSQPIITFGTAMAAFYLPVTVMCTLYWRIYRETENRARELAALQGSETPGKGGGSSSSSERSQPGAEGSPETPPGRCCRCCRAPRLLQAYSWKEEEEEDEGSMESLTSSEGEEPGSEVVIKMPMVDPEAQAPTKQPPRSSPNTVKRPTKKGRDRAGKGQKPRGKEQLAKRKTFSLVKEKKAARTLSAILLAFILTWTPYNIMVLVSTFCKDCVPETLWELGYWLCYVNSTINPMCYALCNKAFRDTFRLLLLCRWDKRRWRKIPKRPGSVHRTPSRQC
# procedure summary: muscarinic M1 FLIPR calcium assay for positive allosteric modulator activity (acetylcholine EC20)
# condition description: FLIPR intracellular Ca2+, 4 min preincubation, then EC20 acetylcholine (3 nM final), read-out: IP Value (inflection point)
What log10 EC50 was measured for each of the following?
Plainly stated, the numbers are log10 of EC50 given in nM.

Query: log10 EC50; subject: `O=C(O)c1cn(Cc2ccc(-c3ccc(F)nc3)cn2)c2c(F)cccc2c1=O`
2.31

Cool, now `O=C(O)c1cn(Cc2ccc(-c3ccc(F)cc3F)cn2)c2c(F)cccc2c1=O`
2.87

Field entry: C[S+]([O-])c1ccc(Cn2cc(C(=O)O)c(=O)c3cccc(F)c32)nn1 (stereo not shown)
4.39

For `O=C(O)c1cn(Cc2ncc(-c3ccccc3O)cn2)c2c(F)cccc2c1=O` then?
3.37

One more molecule: `CS(=O)(=O)Nc1cccc(-c2ccc(Cn3cc(C(=O)O)c(=O)c4cccc(F)c43)nc2)c1`
2.00

// same read-out, input: `O=C(O)c1cn(Cc2c(F)cncc2F)c2c(F)cccc2c1=O`
3.46

Again, but for `O=C(O)c1cn(Cc2ccc(-c3ccc(N4CCOCC4)nc3)cn2)c2cccc(F)c2c1=O`
2.00

And what about the molecule `Cn1ccc2cc(-c3ccc(Cn4cc(C(=O)O)c(=O)c5cccc(F)c54)cn3)ccc21` ?
1.57

Try this molecule too: `Nc1cccc(-c2ccc(Cn3cc(C(=O)O)c(=O)c4cccc(F)c43)nc2)c1`
1.38

Moving on to `O=C(O)c1cn(Cc2ccc(N3CCC3)nn2)c2c(F)cccc2c1=O`
3.72

Another molecule: `O=C(O)c1cn(Cc2cnc(-c3ccncc3)cn2)c2c(F)cccc2c1=O`
3.86

Likewise for `CCn1cc(-c2ccc(Cn3cc(C(=O)O)c(=O)c4c(F)ccc(F)c43)nc2)cn1` ?
1.81

Repeat with `O=C(O)c1cn(Cc2ccc(-n3cccn3)cn2)c2c(F)cccc2c1=O`
3.28

Again, but for `COc1ccc(-c2ccc(Cn3cc(C(=O)O)c(=O)c4c(F)ccc(F)c43)nc2)cn1`
2.48

# repeat for `O=C(O)c1cn(Cc2ccc(-c3ccccc3F)nn2)c2c(F)cccc2c1=O`
3.94

Now this one: `O=C(O)c1cn(Cc2cccc(-n3cccn3)n2)c2c(F)ccc(F)c2c1=O`
3.35

Consider next the molecule `O=C(O)c1cn(Cc2ccc(-c3ccc(F)nc3)cn2)c2cccc(F)c2c1=O` in the same way.
2.69

Entry to check: `O=C(O)c1cn(Cc2ccc(-c3cnn(CC(F)(F)F)c3)cn2)c2c(F)ccc(F)c2c1=O`
2.06

Moving on to the next molecule: `O=C(O)c1cn(Cc2ccc(N3CCCCC3)nn2)c2c(F)cccc2c1=O`
4.16

Field entry: `Nc1ccc(-c2ccc(Cn3cc(C(=O)O)c(=O)c4c(F)cccc43)nc2)cn1`
2.01

One more molecule: `O=C(O)c1cn(Cc2ccc(-c3cccc(O)c3)nn2)c2c(F)cccc2c1=O`
2.58

# credit: patent US8293914B2
